Every entry's value here was drawn from the nanobody polyreactivity screen of Harvey et al. (2022).

- ASSAY_PROTOCOL: yeast display, Sf9 membrane polyspecificity reagent, FACS + sequencing; frameworks hold sequencing errors
EXPERIMENTAL_ENDPOINT: polyreactivity (PSR sort gate)

RESIDUE_CODES	EXPERIMENTAL_ENDPOINT	MEASURED
QVQLVESGGGLVQAGGSLRLSCAASGSTFYVYAMGWYRQAPGKERELVAAIDDSGDRTYYADSVKGRFTISRDNAKNTVYLQMNSLKPEDTAVYYCAAEYDSWEYDYWGQGTQVTVSS	polyreactivity (PSR sort gate)	low polyreactivity
QVQLVDSGRGLFQAGGSLRLSCAASGRTSSSNVMGWYRQAPGKERELVASINEGGNTYYADSVKGRFTISRDNATNTVYLQMNSLKPEDTAVYYCATEESGYSSWYGYGYSYDYWGQGTQVTVSS	polyreactivity (PSR sort gate)	low polyreactivity
QVQLVESGGGLVQAGGSLRLSCAASGRIFYRYAMGWYRQAPGKERELVATISSGASTNYADSVKGRFTISRDNAKNTVYVQMNSLKPEDTADYYCARLSLRYSYVSRDYWGHGTQVTVSS	polyreactivity (PSR sort gate)	low polyreactivity
QVQLVESGGGLVQAGGSLRLSCAASGRTFVPYVMGWYRQAPGKERELVATINWSGGSTYYADSVKGRFTISRDNAKNTVYLQMNSLKPEDTAVYYCAADYYWTYSYYYERFDYWGLGTQVTVSS	polyreactivity (PSR sort gate)	low polyreactivity
QVQLVESGGGLVQAGRSLRLTCAASGSIFYYYAMGWYRQAPGNERELVAAISSGGRTYYADSVKGRFTISRENANNNVYLQMKSLKTEDTAVYYCAASGGSYSVGRYYYWGQGSQVTVSS	polyreactivity (PSR sort gate)	high polyreactivity
QVQLVESGGGIVQAGGRLRLSWAASGNTFDYYAMGWYRQAPWKERELVAAITRGGSTNYADSVKGRFTISRDNAKNTVYLQRNSRKPEDTAVYYCAAEQRAPRGADDDYCGQGTQVTVSS	polyreactivity (PSR sort gate)	low polyreactivity
QVQLVESGGGLVQAGGSLRLSCAASGIIFQTYAMGWYRQAPGKERELVAAISRSGGSTYYADSVKGRFTISRDNAKNTVYLQMNSLKPEDTAVYYCAAYGYHVNWLKGNYWGQGTQVTVSS	polyreactivity (PSR sort gate)	high polyreactivity
QVQLVESGGGLVQAGGSLRLSCAASGSTFHTFAMGWYRPAPGKERELVAAINRRTGGTYYADSVKGRFTISRDNAKNTVDLQMNSLKPEDTAVFYCATDWFSYRGGIFDSWGQGTQVTVSS	polyreactivity (PSR sort gate)	low polyreactivity
QVQLVESGAGLVQAGGSLRLTCAASGSNFYYYAMGWYRQAPGKERELVAAINGGDTYYADSVKGRFTISRDNAKNTVYLQMNSLKPEDTAVFYCAAEGVTVEWDYDYWGQGTQVTVSS	polyreactivity (PSR sort gate)	low polyreactivity
QVQLVESGGGLVQAGGSLRLSCAASGITFPYYAMGWYRQAPGKERELVAAISSGGSTNYADSVKGRFTISRDNAKNTVYLQMNSLKPEDTAVYYCNADVRSYFYDYWGQGTQVTVSS	polyreactivity (PSR sort gate)	low polyreactivity
QVQLVESGGGLVQAGGSLRLSCAASGSTFYYNAMGWYRQAPGKERELVAVITLNGGRTSYADSVKGRFTISRDNAKNTVYLQMNSLKPEDTAVYYCAADRYRGYGYWGQGTQVTVSS	polyreactivity (PSR sort gate)	low polyreactivity
